target: FABP5 (Homo sapiens); assay: Direct ligand binding assay of fluorescent probes, FABP5
Sequence (Q01469 whole entry): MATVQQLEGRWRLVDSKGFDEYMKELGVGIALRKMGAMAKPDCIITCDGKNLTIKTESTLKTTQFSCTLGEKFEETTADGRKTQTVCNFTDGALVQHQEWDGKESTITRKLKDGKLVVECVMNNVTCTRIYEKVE
property: Kd (µM)
One number for each entry, in µM.

Kd lookup needed for `CN(C)c1cccc2c(S(=O)(=O)NCCCCCCCCCCC(=O)O)cccc12` , thanks.
2.56

====

molecular target: FABP7 (Homo sapiens); assay: Direct ligand binding assay of fluorescent probes, FABP7
Sequence (O15540 whole entry): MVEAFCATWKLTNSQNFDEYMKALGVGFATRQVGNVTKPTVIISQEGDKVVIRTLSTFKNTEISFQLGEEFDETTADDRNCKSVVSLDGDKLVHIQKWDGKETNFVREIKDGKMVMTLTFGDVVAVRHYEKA
property: Kd (nM)
One number for each entry, in nM.

Kd lookup needed for `O=S(=O)(O)c1cccc2cccc(Nc3ccccc3)c12` , thanks.
1010
